Where do the numbers come from? From the supplement of paper PMC9262897.

Could you please report measured growth for the items listed next?
System: E. coli TESEC Mtb Asd
protocol_details: growth (OD600 after 10 h); higher = more growth (less inhibition)
condition_details: arabinose induction (level): Low; compound 0.1 mM; raw OD600 reference: median of DMSO wells 0.417, cell-free background 0.041
Counter-ions that a name gives are not always drawn.
Answer using only a numeral; do not append any unit.

Quick check: growth of `Nc1nc2c(ncn2COC(CO)CO)c(=O)[nH]1` ?
0.411

Quick check: growth of Cc1cc(CC(=O)O)n(C)c1C(=O)c1ccc(Cl)cc1 [Zomepirac sodium salt] ?
0.295

Quick check: growth of COc1ccccc1N1CCN(CC(O)COc2cccc3ccccc23)CC1 (stereo not drawn) [Naftopidil dihydrochloride] ?
0.0516

Quick check: growth of `O=C(O)CCC(=O)c1ccc(-c2ccccc2)cc1` ?
0.286

Quick check: growth of `CC(C)Cn1cnc2c(N)nc3ccccc3c21` ?
0.392

Quick check: growth of CCC[C@@H]1C[C@@H](C(=O)N[C@@H]([C@H]2O[C@H](SC)[C@H](O)[C@@H](O)[C@H]2O)[C@H](C)Cl)N(C)C1 [Clindamycin hydrochloride] ?
0.0715

Quick check: growth of CN1[C@@H]2CC[C@H]1C[C@@H](OC(=O)c1c[nH]c3ccccc13)C2 [Tropisetron HCl] ?
0.319

Quick check: growth of C=CCSCC1Nc2cc(Cl)c(S(N)(=O)=O)cc2S(=O)(=O)N1 (stereo not drawn) [Althiazide] ?
0.441
